Values were extracted from patent US20260209365A1.

# Test Target: T1, human γc on cells (KHYG-1, Ramos, HPB-ALL, Jurkat, PBMC) (human) (UniProt P31785)
# T1 sequence (looked up): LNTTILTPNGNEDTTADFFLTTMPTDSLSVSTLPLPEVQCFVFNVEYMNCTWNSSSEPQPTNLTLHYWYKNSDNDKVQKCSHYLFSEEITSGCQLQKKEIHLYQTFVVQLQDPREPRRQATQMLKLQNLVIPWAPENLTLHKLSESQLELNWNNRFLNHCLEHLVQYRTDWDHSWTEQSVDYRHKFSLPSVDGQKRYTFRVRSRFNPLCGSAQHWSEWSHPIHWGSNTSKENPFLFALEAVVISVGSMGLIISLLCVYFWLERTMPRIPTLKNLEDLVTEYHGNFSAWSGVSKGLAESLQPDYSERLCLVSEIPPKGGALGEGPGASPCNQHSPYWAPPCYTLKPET
# Assay Remarks: cell-based or functional assay
Tag: MET if measured p-STAT3 inhibition (%), IL-9 induced, Jurkat T cells, flow cytometry is not below 90%, NOT MET if it is.

- Binder: "SM-05E anti-γc ScFv (scFv, part only; not given: linker and E-tag, not shown: small tags and cut ends) scFv (part 1 of 2), part: EVHLQQSGPELVKPGASVKIFCKTSGYTFTEYTMHWVKQSHGESLEWIGGIDPNTGGVTYNQKFKGKATLTADKSSSTAYMELRSLTSEDSAVYYCARRRRYYGYALDYWGQGTSVTVSS scFv (part 2 of 2), part: DVLMTQTPLSLPVSLGDQASISCRSSQSIVHSNGNTYLEWYLQKPGQSPKLLIYKVSNRFSGVPDRFSGSGSGTDFTLKISSVEAEDLGVYFCSQSTHVPFMFGSGTKLEIKR"
  Assigned Class: "NOT MET"
- Binder: "SM-05C anti-γc ScFv (scFv, part only; not given: linker and E-tag, not shown: small tags and cut ends) scFv (part 1 of 2), part: QVQLQQSGPELVKPGASVKIFCKTSGYTFTEYTMHWVKQSHGESLEWIGGIDPNTGGATYNQKFKGKATLTADKSSSTAYMELRSLTSEDSAVYYCARRRRYYGYAMDYWGQGTSVTVSS scFv (part 2 of 2), part: DVVMTQTPLSLPVSLGDQASISCRSSQSLVHSNGNTYLHWYLQKPGQSPKLLIYKVSNRFSGVPDRFSGSGSGTDFTLKISRVEAEDLGIYYCFQDSHVPFTFGSGTKLEIKR"
  Assigned Class: "MET"
- Binder: "SM-05B anti-γc ScFv (scFv, part only; not given: linker and E-tag, not shown: small tags and cut ends) scFv (part 1 of 2), part: QVQLQQSGPELVKPGASVKIFCKTSGYTFTEYTMHWVKQSHGESLEWIGGIDPNTGGATYNQKFKGKATLTADKSSSTAYMELRSLTSEDSAVYYCARRRRYYGYALDYWGQGTSVTVSS scFv (part 2 of 2), part: DVLMTQTPLSLPVSLGDQASISCRSSQSIVHSNGNTYLEWYLQKPGQSPKLLIYKVSNRFSGVPDRFSGSGSGTDFTLKISRVEAEDLGVYFCSQSTHVPWTFGGGTKLEIKR"
  Assigned Class: "NOT MET"
- Binder: "SM-05H anti-γc ScFv (scFv, part only; not given: linker and E-tag, not shown: small tags and cut ends) scFv (part 1 of 2), part: QVQLQQSGPELVKPGASMNIFCKTSGYTFTEYTMHWVKQSHGESLEWIGGIDPNTGGATYNQKFKGQATLTADKSSSTAYMELRSLTSEDSAVYYCARRRRYYGYALDYWGQGTSVTVSS scFv (part 2 of 2), part: DVLMTQTPLSLPVSLGDQASISCRSSQNIIHSNGNTYLEWYLQKPGQSPKLLIYKVSNRFSGVPDRFTGSGSGTDFTLKISRVEAEDLGVYFCSQSTHVPFTFGGGTKLEIKR"
  Assigned Class: "MET"
- Binder: "SM-05J anti-γc ScFv (scFv, part only; not given: linker and E-tag, not shown: small tags and cut ends) scFv (part 1 of 2), part: EVQLQQSGPELVKPGASVKISCKTSGYTFTEYTMHWVKQSHGKSLEWIGGIDPYNGGITYNQRFKGKATLTVDKSSSTAYMELRSLTSEDSAVYYCARRRLYYGYALDYWGQGTSVTVSS scFv (part 2 of 2), part: DVVMTQTPLSLPVSLGDQASISCRSSQSIVHSNGNTYLEWYLQKPGQSPKLLIYKVSNRFSGVPDRFSGSGSGTDFTLKISRVEAEDLGVYYCFQGSHVPFTFGSGTKLEIKR"
  Assigned Class: "MET"
